target: m3C substrate; assay: Equilibrium fluorescence titration with methylated DNA; assay type: binding; settings: 1 µM apoprotein, 2 mM EDTA, 25 °C; read-out: Dissociation constant Kd, m3C substrate
pKd: −log10 of the molar value.

molecule | pKd
Y143A ALKBH3: ALKBH3 mutant, Tyr143 replaced with Ala (protein, UniProt Q96Q83 1-286, looked up, variant Y143A) Alpha-ketoglutarate-dependent …: MEEKRRRARVQGAWAAPVKSQAIAQPATTAKSHLHQKPGQTWKNKEHHLSDREFVFKEPQQVVRRAPEPRVIDREGVYEISLSPTGVSRVCLYPGFVDVKEADWILEQLCQDVPWKQRTGIREDITYQQPRLTAWYGELPYTASRITMEPNPHWHPVLRTLKNRIEENTGHTFNSLLCNLYRNEKDSVDWHSDDEPSLGRCPIIASLSFGATRTFEMRKKPPPEENGDYTYVERVKIPLDHGTLLIMEGATQADWQHRVPKEYHSREPRVNLTFRTVYPDPRGAPW | 5.20
